Parameter pIC50: see the listing below.
# Tested on: A. baumannii ATCC 17978
# assayRemarks: Antimicrobial susceptibility testing: 50% growth inhibitory concentration (IC50) determination in Iso-Sensitest broth
# Assay type: cell-based
# assayConditions: Acinetobacter baumannii; A. baumannii strain ATCC17978; Iso-Sensitest medium; OD 600 nm over 16 h; 35±2° C.; read-out: IC50 ATCC17978 (50% growth inhibition concentration)
Entry type: numeric. Quantity: pIC50, the -log10 of concentration in molar units.

INSERT INTO measurements (smilesstr, studytarget, recordedmeasurement) VALUES
  ('CN1C(=O)[C@H](CCCCN)NC(=O)[C@H](CCCO)NCc2cccnc2Sc2c(Cl)ccc(-c3cnc(O)nc3)c2CNC(=O)[C@@H]1Cc1c[nH]c2ccccc12', 'A. baumannii ATCC 17978', 5.74);

Query: Return pIC50 for the following molecule: `CN1C(=O)[C@H](CCCCN)NC(=O)[C@H](CCC(N)=O)NCc2cccnc2Sc2c(Cl)ccc(-c3ccc(P(=O)(O)O)cc3)c2CNC(=O)[C@@H]1Cc1c[nH]c2ccccc12`
Reply: 5.52

Query: Return pIC50 for the following molecule: `CN1C(=O)[C@H](CCCN)NC(=O)[C@H](CCCN)NCc2cccnc2Sc2c(F)ccc(-c3ccc(-c4nnn[nH]4)cc3)c2CNC(=O)[C@@H]1Cc1c[nH]c2ccccc12`
Reply: 7.70

* * *

# Test system: A. baumannii ATCC 17978
# assayRemarks: Antimicrobial susceptibility testing: 50% growth inhibitory concentration (IC50) determination in Iso-Sensitest broth
# Assay type: cell-based
# assayConditions: Acinetobacter baumannii; A. baumannii strain ATCC17978; Iso-Sensitest medium; OD 600 nm over 16 h; 35±2° C.; read-out: IC50 ATCC17978 (50% growth inhibition concentration)
Parameter IC50: see the listing below.
API: value field is a number in nM; no unit string.

Look over these answered cases.
INSERT INTO assay_data (smilesstr, valuekind, unittag, recordedmeasurement) VALUES
  ('CN1C(=O)[C@H](CCCCN)NC(=O)[C@H](CCCN)NCc2cccnc2Sc2c(Cl)cc(-c3cn[nH]n3)cc2CNC(=O)[C@@H]1Cc1c[nH]c2ccccc12', 'IC50', 'nM', 180),
  ('CC(=O)NS(=O)(=O)c1ccc(-c2ccc(Cl)c3c2CNC(=O)[C@H](Cc2c[nH]c4ccccc24)N(C)C(=O)[C@H](CCCCN)NC(=O)[C@H](CCCNCCC(=O)O)NCc2cccnc2S3)cc1', 'IC50', 'nM', 520),
  ('Cc1ccc(-c2ccc(S(=O)(=O)O)cc2)c2c1Sc1ncccc1CN[C@@H](CCCN)C(=O)N[C@@H](CCCCN)C(=O)N(C)[C@@H](Cc1c[nH]c3ccccc13)C(=O)NC2', 'IC50', 'nM', 20),
  ('CN1C(=O)[C@H](CCCCN)NC(=O)[C@H](CCCN)NCc2cccnc2Sc2c(Cl)ccc(-c3ccn(Cc4nnn[nH]4)c(=O)c3)c2CNC(=O)[C@@H]1Cc1c[nH]c2ccccc12', 'IC50', 'nM', 80);

Now look at this entry.
Query: Return IC50 for the following compound: `CN1C(=O)[C@H](CCCN)NC(=O)[C@H](CCN)NCc2cccnc2Sc2c(Cl)ccc(-c3ccc(S(=O)(=O)O)cc3)c2CNC(=O)[C@@H]1Cc1c[nH]c2ccccc12`
Reply: 20
